# Alpha-helical rate (%), first value of pair per entry
EXPERIMENTAL PROTOCOL: Circular dichroism (CD), percentage of alpha-helix
Type: physicochemical
REPORTED CONDITIONS: CD at 20° C.; value before the slash, condition not given
ENDPOINT NAME: Alpha-helical rate (%), first value of pair

{"columns": ["SEQUENCE TEXT", "MEAS VALUE"],
 "data": [
  ["LKKLLKLLKKLWKLAG [2t, tryptophan scanned second generation peptide]", 12],
  ["LKKLLKWLKKLLKLAG [2q, tryptophan scanned second generation peptide]", 19],
  ["LKKLLKLLKALLKLKG [1f, alanine scanned first generation peptide]", 17],
  ["LKKLLKLLKKLLKWAG [2u, tryptophan scanned second generation peptide]", 20],
  ["LKKLLKLLKKWLKLAG [2s, tryptophan scanned second generation peptide]", 27],
  ["LKKLLKLLAKLLKLKG [1e, alanine scanned first generation peptide]", 12],
  ["LKKLLALLKKLLKLKG [peptide 1d, alanine scanned first generation peptide]", 12],
  ["LKKLWKLLKKLLKLAG [2p, tryptophan scanned second generation peptide]", 20],
  ["WKKLLKLLKKLLKLAG [2n, tryptophan scanned second generation peptide]", 48],
  ["LKKLLKLLKKLLKLKG [1a, original amphiphilic 16-mer peptide]", 26],
  ["LAKLLKLLKKLLKLKG [1b, alanine scanned first generation peptide]", 9],
  ["LKKLLKLLKKLLKLAG [1h, alanine scanned first generation peptide]", 9],
  ["LKKLLKLLKKLLALKG [1g, alanine scanned first generation peptide]", 8],
  ["LKKLLKLWKKLLKLAG [2r, tryptophan scanned second generation peptide]", 14],
  ["LKALLKLLKKLLKLKG [1c, alanine scanned first generation peptide]", 10],
  ["LKKWLKLLKKLLKLAG [2o, tryptophan scanned second generation peptide]", 4.6]
]}

* * *

EXPERIMENTAL PROTOCOL: Circular dichroism (CD), percentage of alpha-helix
Assay type: physicochemical
REPORTED CONDITIONS: CD at 20° C.; value after the slash, condition not given
Method: To investigate alpha-helix of the amphiphilic peptide (1a-1h), circular dichroism (CD) was performed. Particularly, CD was measured at 20° C. by using JASCO model J715 spectropolarimeter. Scanning was performed at 190-250 nm three times (bandwidth: 1 nm, datapitch: 0.5 nm, speed: 100 nm/min), which were averaged to obtain CD data. […] CD signal was recorded after modulating thereof with mean residue ellipticity [Q]. Percentage (%) of alpha-helix(fn) was calculated by the following formula. […]
ENDPOINT NAME: Alpha-helical rate (%), second value of pair

{"columns": ["SEQUENCE TEXT", "READOUT UNIT", "MEAS VALUE"],
 "data": [
  ["LKKLLKLLKKLLALKG [1g, alanine scanned first generation peptide]", "%", 44],
  ["LKKLLKLLKKWLKLAG [2s, tryptophan scanned second generation peptide]", "%", 60],
  ["LKKLLKLWKKLLKLAG [2r, tryptophan scanned second generation peptide]", "%", 59],
  ["WKKLLKLLKKLLKLAG [2n, tryptophan scanned second generation peptide]", "%", 65],
  ["LKKLLKLLKKLLKWAG [2u, tryptophan scanned second generation peptide]", "%", 52],
  ["LKKLLKLLKALLKLKG [1f, alanine scanned first generation peptide]", "%", 45],
  ["LKKLLKWLKKLLKLAG [2q, tryptophan scanned second generation peptide]", "%", 71],
  ["LKKLWKLLKKLLKLAG [2p, tryptophan scanned second generation peptide]", "%", 56],
  ["LKKLLALLKKLLKLKG [peptide 1d, alanine scanned first generation peptide]", "%", 47],
  ["LKKLLKLLKKLWKLAG [2t, tryptophan scanned second generation peptide]", "%", 58],
  ["LKALLKLLKKLLKLKG [1c, alanine scanned first generation peptide]", "%", 42],
  ["LKKLLKLLAKLLKLKG [1e, alanine scanned first generation peptide]", "%", 43],
  ["LAKLLKLLKKLLKLKG [1b, alanine scanned first generation peptide]", "%", 44],
  ["LKKWLKLLKKLLKLAG [2o, tryptophan scanned second generation peptide]", "%", 52],
  ["LKKLLKLLKKLLKLKG [1a, original amphiphilic 16-mer peptide]", "%", 57],
  ["LKKLLKLLKKLLKLAG [1h, alanine scanned first generation peptide]", "%", 43]
]}
